# system_under_test: ATP-dependent Clp protease proteolytic subunit (Escherichia coli (strain K12))
# assay_notes: Activation of Escherichia coli BLR (DE3) ClpP using bovine milk FITC-beta casein as substrate assessed as change in relative fluorescent units at 50 uM preincubated for 15 mins followed by substrate addition measured every 30 mins for 6 hrs by fluorescence assay
Active and inactive are the calls of the source. The calls are words filed in the database; no cut-off is given here.
property_measured: Activity

CC1(C)C=Cc2c(ccc3c4c(n(O)c23)C(C)(C)C2C[C@]35CCCN3C(=O)[C@]2(NC5=O)C4=O)O1 (stereo partly specified) : inactive
CC1(C)C=Cc2c(ccc3c2NC(=O)[C@@]32C[C@@]34NC(=O)[C@]5(CCCN5C3=O)C[C@H]4C2(C)C)O1 : inactive
CC1(C)C=Cc2c(ccc3c4c([nH]c23)C(C)(C)C2C[C@]35CCCN3C(=O)[C@@]2(C4)NC5=O)O1 (stereo partly specified) : inactive
CC1(C)C=Cc2c(ccc3c2[N+]([O-])=C2C3=C[C@@]34NC(=O)[C@]5(CCCN5C3=O)CC4C2(C)C)O1 (stereo partly specified) : inactive
CC1(C)C=Cc2c(ccc3c2NC(=O)[C@@]32[C@H](O)[C@@]34NC(=O)[C@]5(CCCN5C3=O)C[C@H]4C2(C)C)O1 [SCLEROTIAMIDE] : 29900 RFU

Recall the recorded Activity for `C=CC(C)(C)[C@@]12Nc3c(ccc4c3C=CC(C)(C)O4)[C@]1(O)C[C@H]1C(=O)N3CCC[C@]3(O)C(=O)N12` with ATP-dependent Clp protease proteolytic subunit (Escherichia coli (strain K12)) and state it. inactive
